# koff listing for each entry below
- target-or-test-system: T1, biotinylated CRH (human and mouse, not fully specified; biotinylated, position not stated)
- T1 construct: also called Biotin-CRH; biotin-labeled CRH
- T1 peptide: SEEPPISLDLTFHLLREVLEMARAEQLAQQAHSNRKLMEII
- test-protocol: Octet BLI, biotinylated CRH on SA sensor
# number only, unit s⁻¹ dropped from output

>>> obs_value("PR006142 (antibody, human IgG1, kappa, V domains shown, PTM-removal variant of PR004290) VH: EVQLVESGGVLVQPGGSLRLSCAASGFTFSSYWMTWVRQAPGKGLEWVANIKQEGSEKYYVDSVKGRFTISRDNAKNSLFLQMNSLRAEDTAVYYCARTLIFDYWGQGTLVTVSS VL: DIVMTQSPLSLPVTPGEPASISCRSSQSLLHSTGYDSLEWYLQKPGQSPQLLIYLGSNRASGVPDRFSGSGSGTDFTLKISRVEAEDVGIYYCMQTLQTPITFGQGTRLEIKR")
"4.08e-05"
>>> obs_value("PR005656 (antibody, human IgG1, kappa, V domains shown, PTM-removal variant of PR004290) VH: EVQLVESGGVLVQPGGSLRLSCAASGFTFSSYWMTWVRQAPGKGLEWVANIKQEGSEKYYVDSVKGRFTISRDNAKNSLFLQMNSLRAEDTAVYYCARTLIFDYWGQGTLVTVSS VL: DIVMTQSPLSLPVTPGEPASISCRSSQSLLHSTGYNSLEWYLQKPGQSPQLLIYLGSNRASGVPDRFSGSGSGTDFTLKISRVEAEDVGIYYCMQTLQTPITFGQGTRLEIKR")
"4.55e-05"

Field: next binder
Inquiry: In one line, give reported koff of the entry PR006146 (antibody, human IgG1, kappa, V domains shown, PTM-removal variant of PR004290) VH: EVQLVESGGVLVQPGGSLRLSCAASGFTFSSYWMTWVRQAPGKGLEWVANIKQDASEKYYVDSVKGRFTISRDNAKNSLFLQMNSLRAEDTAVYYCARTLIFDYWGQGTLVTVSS VL: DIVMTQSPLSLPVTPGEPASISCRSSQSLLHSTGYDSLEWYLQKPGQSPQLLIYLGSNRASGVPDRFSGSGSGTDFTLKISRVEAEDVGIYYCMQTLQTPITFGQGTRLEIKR .
Reply text: 4.84e-05
